Assay: Permeability through lipid soaked artificial membrane
Format: in vitro ADME
Details: Table 2
Property label: Perm.

Solved entries (count: 3):
- Molecule: "Cc1nc2c(N)ncnc2n1[C@@H]1O[C@H](CN(C)C/C=C\\CN)[C@@H](O)[C@H]1O (stereo in doubt)"
  Perm.: "0.22 10-6 cm/s"
- Molecule: "CN(C/C=C\\CN)C[C@H]1O[C@@H](n2cnc3c(N)nc(Cl)nc32)[C@H](O)[C@@H]1O"
  Perm.: "0.36 10-6 cm/s"
- Molecule: "CN(C/C=C\\CN)C[C@H]1O[C@@H](n2cnc3c(N)ncnc32)[C@H](F)[C@@H]1O (stereo in doubt)"
  Perm.: "0.00 10-6 cm/s"

Below is a list of molecules. For each, state its recorded Perm..
1. CN(C/C=C\CN)C[C@H]1O[C@@H](n2cnc3c(N)ncnc32)[C@@H](F)[C@@H]1O
2. CN(C/C=C\CN)CC1OC(n2cnc3c(N)ncnc32)C(O)C1O (centres unmarked) [MDL-73811, reference compound]

1. 0.00 10-6 cm/s
2. 0.13 10-6 cm/s
